Study Target: Human recombinant monoamine oxidase MAO-A (Homo sapiens, UniProt P21397)
Construct: purchased Sigma Aldrich
Sequence (P21397 whole entry): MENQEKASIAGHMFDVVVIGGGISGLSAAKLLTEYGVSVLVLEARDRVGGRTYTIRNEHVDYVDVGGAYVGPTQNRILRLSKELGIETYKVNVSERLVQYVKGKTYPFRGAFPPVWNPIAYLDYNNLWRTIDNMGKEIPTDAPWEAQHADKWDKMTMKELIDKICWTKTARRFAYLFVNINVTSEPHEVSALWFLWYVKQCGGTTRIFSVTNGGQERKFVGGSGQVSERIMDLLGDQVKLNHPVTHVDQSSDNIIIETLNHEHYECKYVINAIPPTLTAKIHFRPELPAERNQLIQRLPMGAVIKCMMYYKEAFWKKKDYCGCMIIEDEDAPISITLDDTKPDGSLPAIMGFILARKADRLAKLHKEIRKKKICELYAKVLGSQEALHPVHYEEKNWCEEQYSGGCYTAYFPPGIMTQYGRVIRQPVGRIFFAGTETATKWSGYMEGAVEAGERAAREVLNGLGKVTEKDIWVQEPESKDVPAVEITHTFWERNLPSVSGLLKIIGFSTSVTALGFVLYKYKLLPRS
Test Description: MAO-A inhibition, kynuramine fluorescence assay
Format: biochemical
Run Parameters: further, more elaborate determination (Table 1); read-out: MAO-A IC50
pIC50: −log10 of the molar value.
Item-by-item account of pIC50

- Molecule: "N[C@H]1CCN(CCN[C@H]2C[C@@H]2c2ccc(-c3cccc(C(F)(F)F)c3)cc2)C1 (racemic)"
  pIC50: "< 5.70"
- Molecule: "NC(=O)CN[C@H]1C[C@@H]1c1ccc(OCc2ccccc2)cc1 (racemic) [Compound 1]"
  pIC50: "< 5.70"
- Molecule: "CN1CCN(C(=O)CN[C@H]2C[C@@H]2c2ccc(OCc3ccccc3)cc2)CC1 (racemic)"
  pIC50: "< 5.70"
- Molecule: "N[C@H]1C[C@@H]1c1ccc(-c2cccc(O)c2)cc1 (racemic)"
  pIC50: "< 6.70"
- Molecule: "NC(=O)CN[C@H]1C[C@@H]1c1ccc(OCc2ccccc2)cc1 (single isomer, unassigned) [Compound 2]"
  pIC50: "< 5.70"
- Molecule: "CC(C)S(=O)(=O)Nc1cccc(-c2ccc([C@H]3C[C@@H]3N)cc2)c1 (racemic)"
  pIC50: "< 6.00"

###

Study Target: Human recombinant monoamine oxidase MAO-A (Homo sapiens)
Construct: purchased Sigma Aldrich
Test Description: MAO-A inhibition, kynuramine fluorescence assay
Format: biochemical
Run Parameters: initial determination; read-out: IC50 for MAO-A

- Compound: "N[C@H]1C[C@@H]1c1ccc(-c2cccc(O)c2)cc1 (racemic) [Compound 7]"
  IC50: "> 1000 nM"

# credit: patent US20140296255A1
